Measured Murine IL-21R-BaF3 Proliferation IC50, listed per entry.
- Tested system: murine IL-21R expressed on cells (murine, UniProt Q9JHX3 20-529)
- Sequence (Q9JHX3 20-529 limits assumed): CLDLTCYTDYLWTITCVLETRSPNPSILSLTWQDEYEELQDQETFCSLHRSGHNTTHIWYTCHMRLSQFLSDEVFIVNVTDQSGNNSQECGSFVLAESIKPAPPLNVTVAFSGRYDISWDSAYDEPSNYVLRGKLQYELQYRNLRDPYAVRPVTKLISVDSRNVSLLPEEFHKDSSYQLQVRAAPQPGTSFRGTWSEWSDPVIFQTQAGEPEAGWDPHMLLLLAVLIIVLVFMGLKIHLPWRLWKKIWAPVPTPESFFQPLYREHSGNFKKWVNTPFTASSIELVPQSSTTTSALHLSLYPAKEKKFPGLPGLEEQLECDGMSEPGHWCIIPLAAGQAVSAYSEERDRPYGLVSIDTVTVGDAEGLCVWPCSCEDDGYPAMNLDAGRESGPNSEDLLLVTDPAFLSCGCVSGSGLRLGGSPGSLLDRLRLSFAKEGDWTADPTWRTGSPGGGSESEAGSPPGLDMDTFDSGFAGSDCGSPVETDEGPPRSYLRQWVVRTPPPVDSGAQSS
- Method notes: cell-based or functional assay
Quick note: give the figure in nM, leave out the unit.

{"columns": ["Binder", "Murine IL-21R-BaF3 Proliferation IC50 / nM"],
 "data": [
  ["AbD (antibody, human IgG1, V domains shown, Full-length human IgG1 / human lambda, transient, conditioned medium; Framework limits derived; also called VHP/VL13) VH: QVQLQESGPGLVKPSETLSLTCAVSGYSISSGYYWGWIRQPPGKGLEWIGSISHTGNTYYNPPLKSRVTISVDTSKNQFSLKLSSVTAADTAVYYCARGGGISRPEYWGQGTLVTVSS VL: SSELTQDPAVSVALGQTVRITCQGDSLRTYYASWYQQKPGQAPVLVIYGKHKRPSGIPDRFSGSSSGNTASLTITGAQAEDEADYYCVTRNRYGNPHVLFGGGTQLTVL", 0.01],
  ["AbR (antibody, human IgG1, V domains shown, Purified form: human IgG1 double-mutant (L234A, G237A); Framework limits derived; also called VH3/VL18; VH3DM/VL18) VH: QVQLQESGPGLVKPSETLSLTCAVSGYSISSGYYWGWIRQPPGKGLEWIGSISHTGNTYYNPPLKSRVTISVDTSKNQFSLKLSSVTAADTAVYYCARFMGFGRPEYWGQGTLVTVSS VL: SSELTQDPAVSVALGQTVRITCQGDSLRTYYASWYQQKPGQAPVLVIYGKHKRPSGIPDRFSGSSSGNTASLTITGAQAEDEADYYCVTRSVKGNPHVLFGGGTQLTVL", 0.302],
  ["AbL (antibody, human IgG1, V domains shown, Full-length human IgG1 / human lambda, transient, conditioned medium; Framework limits derived; also called VH3/VL13) VH: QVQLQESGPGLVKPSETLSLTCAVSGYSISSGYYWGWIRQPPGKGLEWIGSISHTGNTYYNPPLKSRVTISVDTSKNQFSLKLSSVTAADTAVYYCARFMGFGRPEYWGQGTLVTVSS VL: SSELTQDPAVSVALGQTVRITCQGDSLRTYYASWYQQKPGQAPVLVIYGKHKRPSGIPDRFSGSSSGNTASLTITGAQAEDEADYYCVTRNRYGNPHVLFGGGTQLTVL", 0.227],
  ["AbE (antibody, human IgG1, V domains shown, Full-length human IgG1 / human lambda, transient, conditioned medium; Framework limits derived; also called VHP/VL14) VH: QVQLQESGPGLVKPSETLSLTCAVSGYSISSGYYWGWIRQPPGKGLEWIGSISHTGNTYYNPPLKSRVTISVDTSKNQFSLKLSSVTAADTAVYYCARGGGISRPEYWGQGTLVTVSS VL: SSELTQDPAVSVALGQTVRITCQGDSLRTYYASWYQQKPGQAPVLVIYGKHKRPSGIPDRFSGSSSGNTASLTITGAQAEDEADYYCMARSRKGNPHVLFGGGTQLTVL", 0.04]
]}

Now examine the next entry.
Please supply the value of reported Murine IL-21R-BaF3 Proliferation IC50 for the item AbO (antibody, human IgG1, V domains shown, Human IgG1 triple-mutant (L234A, L235A, G237A); Framework limits derived; also called VHP/VL16; VHPTM/VL16) VH: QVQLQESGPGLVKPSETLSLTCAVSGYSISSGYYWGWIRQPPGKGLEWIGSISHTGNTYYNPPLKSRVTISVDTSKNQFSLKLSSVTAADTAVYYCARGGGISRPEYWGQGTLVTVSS VL: SSELTQDPAVSVALGQTVRITCQGDSLRTYYASWYQQKPGQAPVLVIYGKHKRPSGIPDRFSGSSSGNTASLTITGAQAEDEADYYCVTRSAKGNPHVLFGGGTQLTVL 0.065
